Origin of values: patent US7494714B2

Target: UniProt:P00698
Sequence (P00698 19-147): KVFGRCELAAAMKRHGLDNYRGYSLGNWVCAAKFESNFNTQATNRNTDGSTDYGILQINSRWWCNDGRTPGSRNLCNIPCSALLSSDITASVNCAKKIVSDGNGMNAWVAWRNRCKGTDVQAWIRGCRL
Experiment: SPR adsorption of lysozyme to SAMs / grafted polymer films
Assay type: binding
Conditions: mixed SAM —CONRR′/—CO2H; 1 mg/mL lysozyme flowed 3 min
Where a SMILES comes first, the peptide text is derived from it. [ ]: non-standard residue; d: D form. Sar = CNCC(=O)O
# note: boundary value 8% maps to Condition not met; % MLlys 3 min below it maps to Condition met

Take a look at these entries with their results.
molecule | answerLabel
CN(C)C(=O)CN | Condition met
CNCC(=O)N(C)CC(=O)N(C)CC(=O)N(C)C [H(CH3)N(Sar)3N(CH3)2] (H-[Sar]-[Sar]-[Sar]-NMe2) | Condition met

Problem: I wonder whether `CNCCNC` has % MLlys 3 min below 8%. Can you tell?
Result: Condition met

Problem: I wonder whether NCC1COCCOCCOCCOCCOCCO1 (stereo not drawn) has % MLlys 3 min below 8%. Can you tell?
Result: Condition met
